Tested on: HepG2 cells
Assay: Cytotoxicity in mammalian HepG2 cell line
Conditions: read-out: IC50 (μM) in HepG2 cells; Table 4; Inactive = no significant activity at highest tested concentration (46 μM)
measured parameter: IC50 (µM)
Express the result in µM but write the number alone.

Here's what some known entries look like.
• CC1=C(CO)C(=O)O[C@@H]([C@@H](C)[C@H]2CC[C@H]3[C@@H]4C[C@H]5O[C@]56[C@@H](O)C=CC(=O)[C@]6(C)[C@H]4CC[C@]23C)C1 = 9.35
• CC1(C)OC2=C(C(=O)c3ccccc3C2=O)[C@H](NCc2ccccc2)[C@@H]1O = 17.1
• Nc1ccc(-c2ccc3ncc4ccc(=O)n(-c5cccc(C(F)(F)F)c5)c4c3c2)cn1 = 9.35

Next compound, IC50 to be filled in.
Give the measured IC50 of `CC(=O)OC[C@H]1O[C@@H]([S-])[C@H](OC(C)=O)[C@@H](OC(C)=O)[C@@H]1OC(C)=O.CCP(CC)CC.[Au+]` .
9.35

---

Test system: P. falciparum strain HB3 gametocytes
Experiment: alamarBlue gametocyte viability assay, strain HB3
Conditions: Plasmodium falciparum, HB3, read-out: HB3-IC50
pIC50: −log10 of the molar value. Starred links: 1 amine or outer side, 2 acyl side, 3 side chain; linkers in the order of their positions; H or OH if unused. Positions of bridges follow the written chain, without caps; N, C: chain ends. Non-standard residues stand in square brackets, D forms with d. Residues, ends and D or L forms follow the SMILES beside them. Chains are numbered I, II in the order given. Actinocin(9to1) = Cc1c2oc3c(C)ccc(C(=O)[*:1])c3nc-2c(C(=O)[*:2])c(N)c1=O; NMeV = CN[C@H](C(=O)O)C(C)C; Sar = CNCC(=O)O
Label FALSE if pIC50 falls below 7; label TRUE in every other case.

* Cc1c2oc3c(C)ccc(C(=O)N[C@@H]4C(=O)N[C@H](C(C)C)C(=O)N5CCC[C@H]5C(=O)N(C)CC(=O)N(C)[C@@H](C(C)C)C(=O)O[C@@H]4C)c3nc-2c(C(=O)N[C@@H]2C(=O)N[C@H](C(C)C)C(=O)N3CCC[C@H]3C(=O)N(C)CC(=O)N(C)[C@@H](C(C)C)C(=O)O[C@@H]2C)c(N)c1=O [Dactinomycin] (I: T[dV]P[Sar][NMeV] / II: T[dV]P[Sar][NMeV]; ester I:1-I:C, II:1-II:C; linker I:N-II:N via Actinocin(9to1)) | TRUE
* COc1cc(NC(C)CCCN)c2ncccc2c1 (stereo not drawn) [Primaquine diphosphate] | FALSE
* CCN(CC)CCCC(C)Nc1ccnc2cc(Cl)ccc12 (stereo not drawn) [Chloroquine diphosphate] | FALSE

Please look at the following compound next.
Say whether `CN(C)c1ccc2nc3ccc(=[N+](C)C)cc-3sc2c1` shows pIC50 of 7 or more.
FALSE

---

Tested on: HepG2 cells
Assay: Cytotoxicity in mammalian HepG2 cell line
Details: Homo sapiens, HepG2, read-out: IC50 (μM) in HepG2 cells
Each record's IC50 is compared with bin 1: < 1 µM; bin 2: ≥ 1 µM and < 10 µM; bin 3: ≥ 10 µM to give its class.

Some solved entries appear below for comparison.
- COc1ccc(C[C@H](N)C(=O)N[C@H]2[C@@H](O)[C@H](n3cnc4c(N(C)C)ncnc43)O[C@@H]2CO)cc1: bin 3
- CC(C)C[C@H](NC(=O)[C@H](Cc1ccccc1)NC(=O)c1cnccn1)B(O)O: bin 1
- CO[C@H]1/C=C\C=C(/C)C(=O)NC2=CC(=O)C(NCCN(C)C)=C(C[C@@H](C)C[C@H](OC)[C@H](O)[C@@H](C)/C=C(\C)[C@@H]1OC(N)=O)C2=O: bin 1
- OC(c1cc(C(F)(F)F)nc2c(C(F)(F)F)cccc12)C1CCCCN1 (stereo not shown): bin 3
- Cc1[nH]c2ccccc2c1CCNCc1ccc(/C=C/C(=O)NO)cc1: bin 1

Please classify: `CC[C@@H](C(=O)O)[C@@H]1O[C@@H]([C@@H](C)[C@H](O)[C@H](C)C(=O)[C@H](CC)[C@H]2O[C@]3(C=C[C@@H](O)[C@]4(CC[C@@](C)([C@H]5CC[C@](O)(CC)[C@H](C)O5)O4)O3)[C@H](C)C[C@@H]2C)[C@@H](C)C[C@@H]1C`
bin 3

Please classify: CC[C@@H](C(=O)[C@@H](C)[C@@H](O)[C@H](C)[C@@H]1O[C@@H]([C@@H](CC)C(=O)O)CC[C@@H]1C)[C@H]1O[C@]2(C=C[C@@H](O)[C@]3(CC[C@@](C)([C@H]4CC[C@](O)(CC)[C@H](C)O4)O3)O2)[C@H](C)C[C@@H]1C [Salinomycin sodium]
bin 3

---

Test system: HepG2 cells
Experiment: Cytotoxicity in mammalian HepG2 cell line
Settings: Table 2; HepG2
In this section, each of the compounds is paired with its reported % Max response.
Give me the value, and tack the unit on after it.

Here's what some known entries look like.
* Nc1ccc(-c2ccc3ncc4ccc(=O)n(-c5cccc(C(F)(F)F)c5)c4c3c2)cn1 [Torin 2] | −46%
* C=CC1CN2CCC1CC2C(O)c1ccnc2ccc(OC)cc12.C=CC1CN2CCC1CC2C(O)c1ccnc2ccc(OC)cc12.O=S(=O)(O)O (stereo not drawn) [Quinine hemisulfate] | 2%

Next compound, % Max response to be filled in.
Request: % Max response, test system HepG2 cells, entry S=C(SSC(=S)N1CCCCC1)N1CCCCC1 [Dicyclopentamethylenethiram disulfide]
0%

---

In this section, each of the molecules is paired with its reported IC50.
Test system: HepG2 cells
Assay: Cytotoxicity in mammalian HepG2 cell line
Details: Homo sapiens, HepG2, read-out: IC50 (μM) in HepG2 cells
Express the result in µM but write the number alone.

Here's what some known entries look like.
- [O-][n+]1ccccc1SSc1cccc[n+]1[O-]: 10.8
- COCCn1c2c([n+](Cc3cnccn3)c1C)C(=O)c1ccccc1C2=O: 4.69
- CN(C)C/C=C/C(=O)Nc1cc2c(Nc3ccc(F)c(Cl)c3)ncnc2cc1O[C@H]1CCOC1: 18.7
- C#Cc1cccc(Nc2ncnc3cc(OC)c(OCCCCCCC(=O)NO)cc23)c1: 6.79
- CC(C)C[C@H](NC(=O)[C@H](CCc1ccccc1)NC(=O)CN1CCOCC1)C(=O)N[C@@H](Cc1ccccc1)C(=O)N[C@@H](CC(C)C)C(=O)[C@@]1(C)CO1: 1.18

Give the measured IC50 of `C/C=C1\NC(=O)[C@H]2CSSCC/C=C/[C@H](CC(=O)N[C@H](C(C)C)C(=O)N2)OC(=O)[C@H](C(C)C)NC1=O` .
0.074
